# tgt: mGluR2 receptor (metabotropic glutamate receptor 2) (Homo sapiens, UniProt Q14416)
# Sequence (Q14416 19-872, species assumed): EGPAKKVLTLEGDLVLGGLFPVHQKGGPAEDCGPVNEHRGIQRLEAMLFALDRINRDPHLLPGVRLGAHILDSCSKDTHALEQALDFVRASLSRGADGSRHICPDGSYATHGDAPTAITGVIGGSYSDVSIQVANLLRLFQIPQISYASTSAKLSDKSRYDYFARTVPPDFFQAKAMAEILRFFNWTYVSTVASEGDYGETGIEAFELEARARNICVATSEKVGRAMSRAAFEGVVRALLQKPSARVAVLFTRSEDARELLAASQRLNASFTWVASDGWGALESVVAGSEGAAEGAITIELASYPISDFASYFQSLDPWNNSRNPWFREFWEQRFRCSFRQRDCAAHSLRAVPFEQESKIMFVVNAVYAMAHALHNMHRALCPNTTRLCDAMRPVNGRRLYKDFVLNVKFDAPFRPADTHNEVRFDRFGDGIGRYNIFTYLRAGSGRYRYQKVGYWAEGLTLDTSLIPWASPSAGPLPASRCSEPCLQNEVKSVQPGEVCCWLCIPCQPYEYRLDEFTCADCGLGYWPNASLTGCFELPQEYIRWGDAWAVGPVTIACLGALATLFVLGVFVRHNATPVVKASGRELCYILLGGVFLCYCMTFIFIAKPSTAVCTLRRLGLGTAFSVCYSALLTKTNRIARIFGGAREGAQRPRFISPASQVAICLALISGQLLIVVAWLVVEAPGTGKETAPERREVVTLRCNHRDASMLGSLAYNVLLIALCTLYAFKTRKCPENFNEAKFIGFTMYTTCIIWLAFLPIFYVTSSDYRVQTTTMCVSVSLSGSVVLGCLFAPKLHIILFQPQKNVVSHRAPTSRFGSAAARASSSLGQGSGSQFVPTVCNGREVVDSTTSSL
# assay.text: mGluR2 potentiator screen (FLIPR, EC10-EC20 glutamate challenge);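 further: HEK cells stably expressing human mGluR2 with GL15 G protein, Fluo-4 calcium fluorescence read on FLIPR, compounds added before an EC10-EC20 glutamate challenge to detect potentiation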
# test.context: geometric mean; read-out: mGluR 2 EC50 (geometric mean)
pEC50: −log10 of the molar value.
measured.endpoint: pEC50

Cc1cc(CN2CC(c3cccnc3)OC2=O)ccc1OCC1CCCCC1 (stereo not drawn) [Example 250] :: 5.73
CC1CN(Cc2ccc(OCc3ccc(F)cc3Cl)cc2)C(=O)O1 (stereo not drawn) [Example 115] :: 7.14
CC(Oc1ccc(CN2CC(c3ccccn3)OC2=O)cc1)C1CCCCC1 (stereo not drawn) [Example 207] :: 7.20

P: CCC1CN(Cc2ccc(-c3ccc(F)cc3F)cc2)C(=O)O1 (stereo not drawn) [Example 315]
Q: CC(C)Oc1ccc(-c2ccc(CN3C[C@H](C)OC3=O)cc2)cc1 [Example 58]
Asked: Between P and Q , whose recorded pEC50 is greater? When you have decided, please share the label of that item.
Given back: P
(P: 7.38, Q: 6.98)

P: C[C@H]1CN(Cc2ccc(-c3ccc(C(F)(F)F)cc3)cc2)C(=O)O1 [Example 63]
Q: CCOc1ccccc1COc1ccc(CN2CC(C)OC2=O)cc1 (stereo not drawn) [Example 114]
Asked: # argmax over pEC50 for candidates P and Q Please identify the chosen entry by its label.
Given back: Q
